B1: FUNDC2 (parent)
chain: YIKVDWQRVEKDMKKAKEQLKIRK

Variants of: B1
Experiment: protein stability index of a GFP-peptide fusion (GPS, HEK-293T) (PSI 1-6); higher = more stable;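 further: lentivirally expressed fusions sorted by FACS into six bins by GFP to DsRed ratio, PSI derived from sequencing read proportions per bin multiplied by bin number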
Conditions: c terminus: a fixed tail appended
Items are presented alongside their recorded protein stability index.
Assay Endpoint: protein stability index

• K21Y = 2.5
• A16W = 1.94
• E18M = 1.59
• K14A = 1.6
• K21H = 1.74
• K24G = 1.85
• M13N = 2.3
• Q19L = 2.43
• I22A = 1.21
• Q7R = 1.43
• Y1M = 2.63
• K17P = 1.79
• I22E = 2.65
• W6A = 3.39
• D12N = 1.47
• W6H = 2.83
• A16C = 2.08
• L20P = 1.95
• V4M = 1.45
• Q19T = 2.8
• K17Q = 1.65
• K14F = 1.51
• K21L = 1.71
• W6M = 2.46
• R8M = 2.35
• I22F = 2.12
• W6T = 2.97
• Y1W = 1.99
• D12Y = 3.43
• E10Y = 1.79
• M13R = 2.29
• E10Q = 1.36
• K17Y = 2.37
• R23W = 1.59
• Q19R = 1.33
• E18A = 1.97
• M13T = 1.4
• Q19S = 2.04
• R8A = 2.35
• R8Q = 1.68
• R8Y = 1.62
• Y1E = 4.15
• I2T = 2.37
• D5L = 2.48
• I22Q = 2.51
• K14L = 2.19
